The entries below come with measured IC50 values attached.
Molecular target: Epidermal growth factor receptor (Homo sapiens, UniProt P00533, C797S/EX19DEL/T790M)
Sequence (P00533 whole entry, looked up, stated change not applied, the tested form may be a part): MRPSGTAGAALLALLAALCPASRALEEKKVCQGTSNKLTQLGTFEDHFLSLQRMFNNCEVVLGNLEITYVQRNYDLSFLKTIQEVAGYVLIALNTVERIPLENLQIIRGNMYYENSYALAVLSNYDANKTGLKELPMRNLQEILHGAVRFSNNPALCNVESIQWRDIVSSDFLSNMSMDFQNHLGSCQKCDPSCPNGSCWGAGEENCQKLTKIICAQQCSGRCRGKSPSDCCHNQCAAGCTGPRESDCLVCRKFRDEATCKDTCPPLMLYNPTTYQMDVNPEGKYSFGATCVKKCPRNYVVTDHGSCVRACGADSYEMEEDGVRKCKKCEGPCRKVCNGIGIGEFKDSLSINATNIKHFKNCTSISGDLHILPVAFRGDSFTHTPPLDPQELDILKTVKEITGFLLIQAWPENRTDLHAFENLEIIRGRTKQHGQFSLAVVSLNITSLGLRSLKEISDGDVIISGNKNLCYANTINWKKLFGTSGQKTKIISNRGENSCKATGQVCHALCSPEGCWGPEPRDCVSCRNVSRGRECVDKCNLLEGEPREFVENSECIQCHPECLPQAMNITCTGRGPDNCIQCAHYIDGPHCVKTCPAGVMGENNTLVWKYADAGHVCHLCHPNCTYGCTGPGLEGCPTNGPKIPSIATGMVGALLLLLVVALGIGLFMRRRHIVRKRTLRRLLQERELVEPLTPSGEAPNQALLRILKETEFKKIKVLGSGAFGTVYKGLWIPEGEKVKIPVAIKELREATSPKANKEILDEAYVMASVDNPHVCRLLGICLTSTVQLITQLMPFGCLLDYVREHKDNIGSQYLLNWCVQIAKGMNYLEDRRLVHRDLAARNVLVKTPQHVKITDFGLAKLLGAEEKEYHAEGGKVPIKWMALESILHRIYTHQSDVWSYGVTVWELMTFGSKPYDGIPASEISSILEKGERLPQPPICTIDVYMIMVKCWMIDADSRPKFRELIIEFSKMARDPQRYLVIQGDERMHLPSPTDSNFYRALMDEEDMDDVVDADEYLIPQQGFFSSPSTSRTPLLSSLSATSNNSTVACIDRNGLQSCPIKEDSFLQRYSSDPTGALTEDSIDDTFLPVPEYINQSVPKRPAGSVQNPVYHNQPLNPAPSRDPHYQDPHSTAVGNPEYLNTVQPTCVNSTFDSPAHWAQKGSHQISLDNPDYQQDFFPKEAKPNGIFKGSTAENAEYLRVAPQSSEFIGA
Assay: Inhibition of phosphorylated EGFR del19/T790M/C797S triple mutant (unknown origin) expressed in mouse BaF3 cells incubated for 4 hrs by Alphascreen assay
Type: cell-based
Note: unit nM is implicit; provide only the numeric part.

Completed entries (count: 3):
Input: Can you share its IC50? I mean this compound: `Cc1cc2cc(n1)-c1cnn(C)c1OCCC[C@@H](C)CN1/C(=N/C2=O)Nc2ccccc21`
Output: 0.8

Input: Could you do the same for `COc1ccncc1-c1cc(C(=O)/N=c2\[nH]c3ccccc3n2CC(C)(C)O)ccn1` , please?
Output: 1

Input: Could you do the same for `Cn1ncc2c1OCCCCCN1/C(=N/C(=O)c3cc(F)nc-2c3)Nc2ccccc21` , please?
Output: 1.2

***
Input: Can you share its IC50? I mean this compound: `CC(C)(O)Cn1/c(=N/C(=O)c2cc(F)cc(-c3cccnc3)c2)[nH]c2ccccc21`
Output: 790

Input: Could you do the same for `Cc1cc2cc(n1)-c1cnn(C)c1OCCCCCN1/C(=N/C2=O)Nc2ccccc21` , please?
Output: 1

---

Target: Epidermal growth factor receptor (Homo sapiens, UniProt P00533, C797S/EX19DEL/T790M)
Assay: Inhibition of phosphorylated EGFR del19/T790M/C797S triple mutant (unknown origin) expressed in mouse BaF3 cells incubated for 4 hrs by Alphascreen assay
Assay type: cell-based
The entries below come with measured pIC50 values attached.
Keep it numeric: pIC50 is minus log10 of the concentration in mol/L.

Input: Can you share its pIC50? I mean this compound: `CC(C)(O)Cn1/c(=N/C(=O)c2cccc(-c3cccnc3)c2)[nH]c2ccccc21`
Output: 5.85

Input: Could you do the same for `O=C1/N=C2\Nc3ccccc3N2CCCCCOc2ccccc2-c2cc1ccn2` , please?
Output: 8.52

Input: Could you do the same for `Cn1cc(-c2cc(C(=O)/N=c3\[nH]c4ccccc4n3CC(C)(C)O)ccn2)cn1` , please?
Output: 7.37

Next:
Input: Can you share its pIC50? I mean this compound: `CC(C)(O)Cn1/c(=N/C(=O)c2ccnc(-c3ccccc3)c2)[nH]c2ccccc21`
Output: 7.66

---

Target: Epidermal growth factor receptor (Homo sapiens, UniProt P00533, C797S/EX19DEL/T790M)
Experiment: Inhibition of GST-fusion tagged EGFR del19/T790M/C797S triple mutant (unknown origin) (696 to 1022 residues) expressed in insect cells assessed as decrease in phosphorylation of ULight-poly-GT using poly-GT as substrate in presence of ATP
Experimental readout: pIC50
Keep it numeric: pIC50 is minus log10 of the concentration in mol/L.

Input: Can you share its pIC50? I mean this compound: `CC(C)(O)Cn1/c(=N/C(=O)c2ccnc(-c3ccccc3)c2)[nH]c2ccccc21`
Output: 7.46

Input: Could you do the same for `CC(C)(O)Cn1/c(=N/C(=O)c2cccc(-c3cccnc3)c2)[nH]c2ccccc21` , please?
Output: 6.76

Input: Could you do the same for `Cn1cc(-c2cc(C(=O)/N=c3\[nH]c4ccccc4n3CC(C)(C)O)ccn2)cn1` , please?
Output: 7.14

Next:
Input: Can you share its pIC50? I mean this compound: `CC(C)(O)Cn1/c(=N/C(=O)c2cc(F)cc(-c3cccnc3)c2)[nH]c2ccccc21`
Output: 6.60

---

Biological target: Epidermal growth factor receptor (Homo sapiens, UniProt P00533, C797S/L858R/T790M)
Sequence (P00533 25-1210 T790M/C797S/L858R limits assumed): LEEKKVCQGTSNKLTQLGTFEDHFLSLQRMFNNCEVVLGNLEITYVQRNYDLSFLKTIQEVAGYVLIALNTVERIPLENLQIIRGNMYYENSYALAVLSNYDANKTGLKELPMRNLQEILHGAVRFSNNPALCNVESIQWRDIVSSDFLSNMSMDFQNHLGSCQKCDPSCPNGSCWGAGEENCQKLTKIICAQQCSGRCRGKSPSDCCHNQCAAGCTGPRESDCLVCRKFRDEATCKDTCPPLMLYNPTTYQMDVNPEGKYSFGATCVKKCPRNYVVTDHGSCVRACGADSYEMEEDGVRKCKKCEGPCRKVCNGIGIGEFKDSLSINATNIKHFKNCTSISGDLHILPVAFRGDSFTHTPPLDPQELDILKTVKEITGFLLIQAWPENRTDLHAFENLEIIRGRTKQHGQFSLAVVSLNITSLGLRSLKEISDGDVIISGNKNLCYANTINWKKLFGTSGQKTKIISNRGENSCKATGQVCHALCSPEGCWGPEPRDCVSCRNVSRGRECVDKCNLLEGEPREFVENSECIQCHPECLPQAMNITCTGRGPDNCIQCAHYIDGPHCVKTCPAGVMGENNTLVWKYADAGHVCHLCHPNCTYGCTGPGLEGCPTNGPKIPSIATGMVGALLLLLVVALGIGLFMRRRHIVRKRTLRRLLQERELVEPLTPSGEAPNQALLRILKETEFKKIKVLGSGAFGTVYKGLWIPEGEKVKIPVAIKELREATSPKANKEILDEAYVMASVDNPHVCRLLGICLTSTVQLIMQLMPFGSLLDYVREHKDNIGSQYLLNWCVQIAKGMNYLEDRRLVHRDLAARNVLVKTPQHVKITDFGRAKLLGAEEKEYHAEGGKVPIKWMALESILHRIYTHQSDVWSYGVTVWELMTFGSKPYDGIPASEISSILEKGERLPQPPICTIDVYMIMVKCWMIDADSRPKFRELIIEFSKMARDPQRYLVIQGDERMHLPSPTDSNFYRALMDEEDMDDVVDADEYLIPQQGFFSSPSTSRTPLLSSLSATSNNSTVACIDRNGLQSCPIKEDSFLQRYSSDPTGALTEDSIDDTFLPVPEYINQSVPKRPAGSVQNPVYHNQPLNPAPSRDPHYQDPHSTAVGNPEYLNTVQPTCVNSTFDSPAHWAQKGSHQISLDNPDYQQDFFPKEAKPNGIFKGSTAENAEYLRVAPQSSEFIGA
Assay: Inhibition of GST-fusion tagged EGFR L858R/T790M/C797S triple mutant (unknown origin) (696 to 1022 residues) expressed in insect cells assessed as decrease in phosphorylation of ULight-poly-GT using poly-GT as substrate in presence of ATP
Experimental readout: pIC50
Keep it numeric: pIC50 is minus log10 of the concentration in mol/L.

Completed entries (count: 2):
Input: Entry `CC(C)(O)Cn1/c(=N/C(=O)c2cc(F)cc(-c3cccnc3)c2)[nH]c2ccccc21` , system Epidermal growth factor receptor (Homo sapiens, UniProt P00533, C797S/L858R/T790M): what pIC50 was measured?
Output: 5.68

Input: Could you do the same for `Cn1cc(-c2cc(C(=O)/N=c3\[nH]c4ccccc4n3CC(C)(C)O)ccn2)cn1` , please?
Output: 6.28

Next:
Input: Entry `CC(C)(O)Cn1/c(=N/C(=O)c2cccc(-c3cccnc3)c2)[nH]c2ccccc21` , system Epidermal growth factor receptor (Homo sapiens, UniProt P00533, C797S/L858R/T790M): what pIC50 was measured?
Output: 5.57

---

Assay: Hepatic clearance in mouse cryopreserved hepatocytes at 1 uM measured after 240 mins by LC-MS/MS analysis relative to hepatic blood flow
Format: ADME, cell-based, Hepatocyte
Settings: read-out: CLH
Experimental readout: hepatic extraction ratio at 4 h, 1 µM
Respond with the number and no other words.

Input: Can you share its hepatic extraction ratio at 4 h, 1 µM? I mean this compound: `Cc1cc2cc(n1)-c1cnn(C)c1OCCC[C@@H](C)CN1/C(=N/C2=O)Nc2ccccc21`
Output: 0.47

---

The entries below come with measured solubility values attached.
Assay: Aqueous solubility of compound in McIlvaine buffer at 1 mg/ml at pH 6.8 by HPLC-DAD/UV analysis
Assay type: physicochemical
Note: unit µg/mL is implicit; provide only the numeric part.

Input: Can you share its solubility? I mean this compound: `C=CC(=O)Nc1cc(Nc2nccc(-c3cn(C)c4ccccc34)n2)c(OC)cc1N(C)CCN(C)C`
Output: 86

Next:
Input: Can you share its solubility? I mean this compound: `Cc1cc2cc(n1)-c1cnn(C)c1OCCC[C@@H](C)CN1/C(=N/C2=O)Nc2ccc(CN3CCN(C)CC3)cc21`
Output: 95

---

The entries below come with measured fraction unbound at 3 h values attached.
Experiment: Protein binding in mouse plasma assessed as free fraction after 3 hrs by HPLC-MS/MS-based equilibrium dialysis method
Assay type: ADME, cell-free

Input: Can you share its fraction unbound at 3 h? I mean this compound: `C=CC(=O)Nc1cc(Nc2nccc(-c3cn(C)c4ccccc34)n2)c(OC)cc1N(C)CCN(C)C`
Output: < 0.1

Input: Could you do the same for `Cc1cc2cc(n1)-c1cnn(C)c1OCCC[C@@H](C)CN1/C(=N/C2=O)Nc2ccccc21` , please?
Output: < 0.3

---

Assay: Protein binding in human plasma assessed as free fraction after 3 hrs by HPLC-MS/MS-based equilibrium dialysis method
Assay type: ADME, cell-free
Experimental readout: fraction unbound at 3 h
Respond with the number and no other words.

Input: Can you share its fraction unbound at 3 h? I mean this compound: `Cc1cc2cc(n1)-c1cnn(C)c1OCCC[C@@H](C)CN1/C(=N/C2=O)Nc2ccccc21`
Output: 0.5

---

Experiment: Inhibition of EGFR del19 mutant in mouse BAF3 cells incubated for 72 hrs by Celltiter-Glo luminescent cell viability assay
Assay type: cell-based
Conditions: BaF3, 72 h
Experimental readout: pIC50
Keep it numeric: pIC50 is minus log10 of the concentration in mol/L.

Input: Can you share its pIC50? I mean this compound: `Cc1cc2cc(n1)-c1cnn(C)c1OCCC[C@@H](C)CN1/C(=N/C2=O)Nc2ccc(CN3CCN(C)CC3)cc21`
Output: 9.00

---

Assay: Hepatic clearance in human cryopreserved hepatocytes at 1 uM measured after 240 mins by LC-MS/MS analysis relative to hepatic blood flow
Type: ADME, cell-based, Hepatocyte
Details: read-out: CLH
Experimental readout: hepatic extraction ratio at 4 h, 1 µM
Respond with the number and no other words.

Input: Can you share its hepatic extraction ratio at 4 h, 1 µM? I mean this compound: `Cc1cc2cc(n1)-c1cnn(C)c1OCCC[C@@H](C)CN1/C(=N/C2=O)Nc2ccccc21`
Output: 0.12

---

Experiment: Inhibition of EGFR del19/T790M/C797S triple mutant in mouse BAF3 cells assessed as reduction in cell proliferation incubated for 72 hrs by Celltiter-Glo luminescent cell viability assay
Type: cell-based
Details: BaF3, 72 h
Experimental readout: pIC50
Keep it numeric: pIC50 is minus log10 of the concentration in mol/L.

Input: Can you share its pIC50? I mean this compound: `Cc1cc2cc(n1)-c1cnn(C)c1OCCC[C@@H](C)CN1/C(=N/C2=O)Nc2ccccc21`
Output: 9.00

Input: Could you do the same for `COc1ccncc1-c1cc(C(=O)/N=c2\[nH]c3ccccc3n2CC(C)(C)O)ccn1` , please?
Output: 7.29

Input: Could you do the same for `CC(C)(O)Cn1/c(=N/C(=O)c2ccnc(-c3cccnc3)c2)[nH]c2ccccc21` , please?
Output: 6.57

Input: Could you do the same for `Cc1cc2cc(n1)-c1cnn(C)c1OCCC[C@@H](C)CN1/C(=N/C2=O)Nc2ccc(CN3CCN(C)CC3)cc21` , please?
Output: 9.70

Input: Could you do the same for `O=C1/N=C2\Nc3ccccc3N2CCCCCOc2ccccc2-c2cc1ccn2` , please?
Output: 7.57

***
Input: Can you share its pIC50? I mean this compound: `C=CC(=O)Nc1cc(Nc2nccc(-c3cn(C)c4ccccc34)n2)c(OC)cc1N(C)CCN(C)C`
Output: 6.11

Input: Could you do the same for `CC(C)(O)Cn1/c(=N/C(=O)c2ccnc(-c3ccccc3)c2)[nH]c2ccccc21` , please?
Output: 6.82

Input: Could you do the same for `Cn1ncc2c1OCCCCCN1/C(=N/C(=O)c3cc(F)nc-2c3)Nc2ccccc21` , please?
Output: 8.22

Input: Could you do the same for `Cc1cc2cc(n1)-c1cnn(C)c1OCCCCCN1/C(=N/C2=O)Nc2ccccc21` , please?
Output: 8.30

Input: Could you do the same for `Cn1cc(-c2cc(C(=O)/N=c3\[nH]c4ccccc4n3CC(C)(C)O)ccn2)cn1` , please?
Output: 6.48
